Target: HIV-1 protease (Human immunodeficiency virus type 1 group M subtype B, UniProt P04585)
Construct: The protease (or proteinase), consisting of only 99 amino acids, is among the smallest enzymes known
Test: In vitro HIV protease inhibitory assay (HIV Protease FITC Assay)
Type: biochemical
Conditions: HIV-1 Dose 10.000 uM; read-out: HIV-1 Protease % Inhib
parameter measured: inhibition at 10 µM (%)
Give bare numbers, in %.

## Input Sample O=c1oc(CCc2ccc(F)cc2)cc(O)c1C(c1ccccc1)C1CC1 (stereo not shown) [Example 165] — what was its inhibition at 10 µM?
## Output 80.7

## Input Dear colleague, I am looking for the recorded inhibition at 10 µM of the following compound: CCC(Cc1ccccc1)c1cc(O)c(C(c2cccc(NS(=O)(=O)c3cccc4cccnc34)c2)C2CC2)c(=O)o1 (stereo not shown) [Example 229]
## Output 113

## Input Entry CCS(=O)(=O)Nc1cccc(C(c2c(O)cc(C(CC3CC3)CC3CCCOC3)oc2=O)C2CC2)c1 (stereo not shown) [Example 244] has what inhibition at 10 µM?
## Output 103

Please turn your attention to the following entry.
## Input Looking for the measured inhibition at 10 µM of CCC(Cc1cccc(Br)c1)c1cc(O)c(C(c2ccccc2)C2CC2)c(=O)o1 (stereo not shown) [Example 159] , can you help?
## Output 92.3
